System: B16F0 melanoma tumour
Test description: Biodistribution in B16 melanoma bearing mice
Type: in vivo, C57BL/6J mice
Applied conditions: B16 tumour, C57BL/6J mice, 24 h, mean ± SD, n = 5
Quantity kind: uptake TUMOUR (% ID/g)
Give bare numbers, in % ID/g.

[
  {
    "Compound": "CCCN(CCC)CCCCNC(=O)c1cncc(I)c1 [[^123I]17]",
    "Unit name": "% ID/g",
    "uptake TUMOUR": 2.3
  },
  {
    "Compound": "O=C(c1cncc(I)c1)N1CCN(Cc2ccccc2)CC1 [[^123I]20]",
    "Unit name": "% ID/g",
    "uptake TUMOUR": 1.0
  }
]

Could I get uptake TUMOUR for every one of these entries?
1. CCN(CC)CCNC(=O)c1ccc(I)nc1 [[^123I]14]
2. CCN(CC)CCNC(=O)c1cncc(I)c1 [[^123I]11]

Solution:
1. 0.26
2. 3.2

====

Test system: B16F0 melanoma tumour
Test description: Biodistribution in B16 melanoma bearing mice
Format: in vivo, C57BL/6J mice
Applied conditions: B16 melanoma bearing mice, 3 h
I'd be grateful if you could share measured uptake BLOOD for these entries.
Give bare numbers, in % ID/g.

[
  {
    "Molecule": "CCN(CC)CCNC(=O)c1ccc(F)nc1 [[^18F]MEL2]",
    "Reported value": 0.111
  }
]

Could I get uptake BLOOD for every one of these entries?
1. CCN(CC)CCNC(=O)c1cccnc1F [[^18F]MEL6]
2. CCN(CC)CCNC(=O)c1ccnc(F)c1 [[^18F]MEL8]
3. CCCCN(C)CCCCNC(=O)c1ccc(F)nc1 [[^18F]MEL4]

Solution:
1: 0.2; 2: 0.12; 3: 0.21

====

I'd be grateful if you could share measured Organ distribution Spleen for these entries.
System: B16F0 melanoma tumour
Test description: Biodistribution in B16 melanoma bearing mice
Assay type: in vivo, C57BL/6J mice
Applied conditions: B16F0 tumour, C57BL/6J mice, 24 h, mean ± S.D., n = 5
Experimental: Animal experiments were performed in compliance with the NHMRC Australian Code of Practice for the care and use of animals for scientific purposes. […] Eleven days (B16F0 melanoma) and 25 days (A375 human melanoma) after tumour transplantation, the [^18F]nicotinamides (0.5-1.5 MBq, 100 μl) and [^123I]nicotinamide (0.37-0.74 MBq, 100 μl) derivatives were injected intravenously via the tail vein into mice (15-18 g). […] Selected organs were weighed and their radioactivity measured with a γ-counter. […]
Value and unit, in that order.

Could I get Organ distribution Spleen for every one of these entries?
1. CCN(CC)CCNC(=O)c1ccc(I)nc1 [[^123I]14]
2. CCN(CC)CCNC(=O)c1cncc(I)c1 [[^123I]11]
3. O=C(c1cncc(I)c1)N1CCN(Cc2ccccc2)CC1 [[^123I]20]
4. CCCN(CCC)CCCCNC(=O)c1cncc(I)c1 [[^123I]17]

Solution:
1. 0.01 ± 0.00 % ID/organ
2. 0.01 ± 0.03 % ID/organ
3. 0.00 ± 0.00 % ID/organ
4. 0.02 ± 0.03 % ID/organ

====

Test system: B16F0 melanoma tumour
Test description: Biodistribution in B16 melanoma bearing mice
Type: in vivo, C57BL/6J mice
Applied conditions: B16F0 tumour, C57BL/6J mice, 1 h, mean ± S.D., n = 5
I'd be grateful if you could share measured Organ distribution Stomach for these entries.
Give bare numbers, in % ID/organ.

Could I get Organ distribution Stomach for every one of these entries?
1. CCN(CC)CCNC(=O)c1cncc(I)c1 [[^123I]11]
2. CCN(CC)CCNC(=O)c1ccc(I)nc1 [[^123I]14]
3. CCCN(CCC)CCCCNC(=O)c1cncc(I)c1 [[^123I]17]
4. O=C(c1cncc(I)c1)N1CCN(Cc2ccccc2)CC1 [[^123I]20]

Solution:
1: 2.0; 2: 9; 3: 6; 4: 1.7
